A collection of molecules and their measured cytotoxicity at 70.5 h
Assay: Human HepG2 cell viability assay in 384 well format
Type: toxicity, cell-based
Design: dose 125 nL, time 70.5 hour; concentration not given beside the values
Details: HepG2 cells, read-out: Inhibition
measure: cytotoxicity at 70.5 h (%)

INSERT INTO results (molecule, measureunit, reportedvalue) VALUES
  ('CCN1CCOC(CNCc2ccccc2OCc2cccnc2)C1 (configuration not stated)', '%', 0.0939),
  ('CCCc1nnc(NC2CCN(C3CCSCC3)CC2)o1', '%', -13.9),
  ('CCC(CO)N(Cc1ccco1)C(=O)c1ccccc1SC (configuration not stated)', '%', 10.8),
  ('Cc1nc(CN2CCC3(CC2)NC(=O)CC3c2ccccc2)cs1 (configuration not stated)', '%', -2.14),
  ('Cc1cnc(C(=O)N2CCC3(CCCN(c4nncs4)C3)C2)cn1 (configuration not stated)', '%', -0.974),
  ('COc1ccccc1OC1(C(=O)O)CCN(c2nccnc2C)CC1', '%', -5.26),
  ('O=C(Cc1cccc(F)c1)NCCCNC(=O)c1cccc(O)c1', '%', -2.95),
  ('c1cnc(NC2COC3(CCN(Cc4cc[nH]n4)CC3)C2)nc1 (configuration not stated)', '%', -99.2),
  ('COc1cc2c(cc1CNCc1ccnc(-n3cccn3)c1)OC(C)C2 (configuration not stated)', '%', -12.6),
  ('Cc1cnn(CC2CCCCN2C(=O)CC(F)(F)F)c1 (configuration not stated)', '%', -3.76),
  ('CCCc1cc(=O)[nH]c2nnc(SCC(=O)NCc3ccc(C)cc3)n12', '%', -6.16),
  ('Cc1cc(C(=O)NCc2cc(C)oc2C)no1', '%', -5.78);
